- ASSAYED_TARGET: SNX27, Q96L92
- TEST_DESCRIPTION: holdup assay
- Parameters: key: below the threshold = too weak to quantify, mostly under pKd 3.1 to 4
- SETTINGS: plain residues with an end cap or a label only (N-terminal biotin on a linker: ado-ado)

- BINDER: "YRLAQESGLV [ABCC6, O95255]"
  pKd: "below the threshold"
- BINDER: "LRSPRTPSEV [OR10G3, Q8NGC4]"
  pKd: "below the threshold"
- BINDER: "PRISRSQSEL [CCDC134, Q9H6E4]"
  pKd: "below the threshold"
- BINDER: "TSSMRGMDAV [RSRC2, Q7L4I2]"
  pKd: "below the threshold"
- BINDER: "RRISSLESEV [GRIN2C, Q14957]"
  pKd: 4.97
